target: FHA variant H11 (yeast); experiment: ELISA; competition: FHA clone binding to immobilized phosphorylated Akt1 peptide in the presence of free phosphorylated peptide; IC50
Non-standard residues stand in square brackets, D forms with d. *: point of attachment. Biotin = O=C1N[C@H]2[C@H](CS[C@H]2CCCCC(=O)*)N1; pT = C[C@@H](OP(=O)(O)O)[C@H](N)C(=O)O
measurement-type: pIC50
Conceptually, pIC50 converts a concentration in mol/L into minus its log10.

Recorded result, Biotin-KDGATMK[pT]FCGTPEY-NH2 (not fully specified (residue 12)) [Akt1-pT308 peptide] , pIC50: 7.05
